target: HIV-1 Env of pseudovirus isolate MGRM-G-019 (subtype G) (HIV-1); test: cell-based or functional assay
Reported IC50 is given for each of the following binders.
ASSAY_METRIC: IC50 (µg/mL)

BINDER | READOUT_UNIT | READOUT_QUALIFIER | READING
PGT-125 (antibody, V domains shown) VH: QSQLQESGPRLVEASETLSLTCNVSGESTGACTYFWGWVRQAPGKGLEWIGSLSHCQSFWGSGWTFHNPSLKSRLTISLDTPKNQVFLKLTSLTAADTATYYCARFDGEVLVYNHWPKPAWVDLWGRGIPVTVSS VL: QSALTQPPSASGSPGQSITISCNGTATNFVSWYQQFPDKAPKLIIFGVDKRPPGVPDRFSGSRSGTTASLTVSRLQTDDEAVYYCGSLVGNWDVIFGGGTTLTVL | µg/mL | > | 50
PGT-126 (antibody, V domains shown) VH: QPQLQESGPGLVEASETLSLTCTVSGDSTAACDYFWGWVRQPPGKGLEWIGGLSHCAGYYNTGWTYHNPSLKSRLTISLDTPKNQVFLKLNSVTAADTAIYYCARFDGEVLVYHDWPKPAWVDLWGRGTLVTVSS VL: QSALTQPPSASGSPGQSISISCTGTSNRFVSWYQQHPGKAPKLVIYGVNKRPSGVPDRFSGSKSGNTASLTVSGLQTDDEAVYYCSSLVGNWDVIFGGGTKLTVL | µg/mL | = | 0.018
PGT-130 (antibody, V domains shown) VH: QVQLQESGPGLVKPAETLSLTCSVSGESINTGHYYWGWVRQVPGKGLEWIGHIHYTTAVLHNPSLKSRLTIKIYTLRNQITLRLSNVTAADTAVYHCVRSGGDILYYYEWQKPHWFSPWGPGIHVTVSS VL: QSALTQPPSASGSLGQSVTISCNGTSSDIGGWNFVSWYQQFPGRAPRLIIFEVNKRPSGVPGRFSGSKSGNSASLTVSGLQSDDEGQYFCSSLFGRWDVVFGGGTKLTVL | µg/mL | = | 27.9
